The reported measurements were obtained from PubChem BioAssay AID2060626.

system: 168753-222-R-J1-PDC complex spheroid viability; assay: Anticancer human tumor 168753-222-R-J1-PDC patient-derived bladder carcinoma cell line growth inhibition [CLK]; settings: second compound 10 µM; first compound 0.003 µM; active means viability on the fitted dose curve at most 10% of control; inactive means the rest
Give your call using only these classes: active, inactive

Check the results log: what was the call for CC(C)CC(NC(=O)C(Cc1ccccc1)NC(=O)c1cnccn1)B(O)O (centres undefined) + CN1CCN(c2cc(C(=O)Nc3cc4cc(-c5cnn(C)c5)ccc4cn3)ccn2)CC1 ?
active

Can you look up the reported call for C=CC(=O)Nc1cc(Nc2nccc(-c3cn(C)c4ccccc34)n2)c(OC)cc1N(C)CCN(C)C + CN1CCN(c2cc(C(=O)Nc3cc4cc(-c5cnn(C)c5)ccc4cn3)ccn2)CC1 for me?
active

For C=CC(=O)Nc1cc(Nc2nccc(-c3cn(C)c4ccccc34)n2)c(OC)cc1N(C)CCN(C)C + CNC(=O)c1ccc(Nc2nc(OC3CCCC3)c3c(-c4ccc5nc(C)oc5c4)c[nH]c3n2)c(OC)c1 , what call appears in the results of this test?
inactive

Which outcome was assigned to CC(C)CC(NC(=O)C(Cc1ccccc1)NC(=O)c1cnccn1)B(O)O (centres undefined) + CNC(=O)c1ccc(Nc2nc(OC3CCCC3)c3c(-c4ccc5nc(C)oc5c4)c[nH]c3n2)c(OC)c1 in this test?
inactive

###

test system: 168753-222-R-J1-PDC complex spheroid viability; assay: Anticancer human tumor 168753-222-R-J1-PDC cell line growth inhibition [CLK]; settings: second compound 1 µM; first compound 0.01 µM; active = viability on the fitted dose curve at most 10% of control; inactive = the rest;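 further: luminescence signal used as surrogate for viable cell amount; viability measured after seven days of drug exposure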
Entry note: the call must match one of active, inactive

Hi, do you know how Cn1ncnc1[C@H]1c2n[nH]c(=O)c3cc(F)cc(c23)N[C@@H]1c1ccc(F)cc1 + CNC(=O)c1ccc(Nc2nc(OC3CCCC3)c3c(-c4ccc5nc(C)oc5c4)c[nH]c3n2)c(OC)c1 came out in this test?
inactive

What call does the record list for CCN1CCN(Cc2ccc(Nc3ncc(F)c(-c4cc(F)c5nc(C)n(C(C)C)c5c4)n3)nc2)CC1 + CNC(=O)c1ccc(Nc2nc(OC3CCCC3)c3c(-c4ccc5nc(C)oc5c4)c[nH]c3n2)c(OC)c1 ?
inactive

Hi, do you know how CCc1c2c(nc3ccc(O)cc13)-c1cc3c(c(=O)n1C2)COC(=O)[C@]3(O)CC + CN1CCN(c2cc(C(=O)Nc3cc4cc(-c5cnn(C)c5)ccc4cn3)ccn2)CC1 came out in this test?
active

GET /call?item= COc1c(OCCCN2CCOCC2)ccc2c3n(c(=NC(=O)c4cnc(N)nc4)nc12)CCN3 + CN1CCN(c2cc(C(=O)Nc3cc4cc(-c5cnn(C)c5)ccc4cn3)ccn2)CC1 returns the recorded outcome of this test.
active

Recorded test outcome, item COc1c(OCCCN2CCOCC2)ccc2c3n(c(=NC(=O)c4cnc(N)nc4)nc12)CCN3 + CNC(=O)c1ccc(Nc2nc(OC3CCCC3)c3c(-c4ccc5nc(C)oc5c4)c[nH]c3n2)c(OC)c1
inactive

Call for entry CCN1CCN(Cc2ccc(Nc3ncc(F)c(-c4cc(F)c5nc(C)n(C(C)C)c5c4)n3)nc2)CC1 + CN1CCN(c2cc(C(=O)Nc3cc4cc(-c5cnn(C)c5)ccc4cn3)ccn2)CC1 :
active

Please indicate how the test categorized Cn1ncnc1[C@H]1c2n[nH]c(=O)c3cc(F)cc(c23)N[C@@H]1c1ccc(F)cc1 + CN1CCN(c2cc(C(=O)Nc3cc4cc(-c5cnn(C)c5)ccc4cn3)ccn2)CC1 .
active

Name the outcome recorded for CCc1c2c(nc3ccc(O)cc13)-c1cc3c(c(=O)n1C2)COC(=O)[C@]3(O)CC + CNC(=O)c1ccc(Nc2nc(OC3CCCC3)c3c(-c4ccc5nc(C)oc5c4)c[nH]c3n2)c(OC)c1 in the assay.
inactive
